Each recorded value in this set is attributed to patent US6893846B2.

- experimental-target: single beta-lactamase in K. pneumoniae cell extracts (Klebsiella pneumoniae, UniProt P0AD64, E235K/G234S)
- assay-remarks: Spectrophotometric hydrolysis assay on crude beta-lactamase extracts
- condition: K. pneumoniae Pit 82 extract, beta-lactamase pI 8.2; 100 μM substrate
metric: Hydrolysis

Please report the recorded Hydrolysis for C[C@H]1[C@H](NC(=O)/C(=N\OC(C)(C)C(=O)O)c2csc(N)n2)C(=O)N1S(=O)(=O)O . 0.9 nmol of substrate hydrolyzed/m

====

- experimental-target: single beta-lactamase in K. pneumoniae cell extracts (Escherichia coli, UniProt P62593, E102K/R162S)
- assay-remarks: Spectrophotometric hydrolysis assay on crude beta-lactamase extracts
- condition: K. pneumoniae Pit 16 extract, beta-lactamase pI 5.6; 100 μM substrate
Listing: Hydrolysis of selected compounds

For orientation, consider the following solved cases.
chemical-string	Hydrolysis
O=C(Cc1cccs1)N[C@@H]1C(=O)N2C(C(=O)O)=C(/C=C/c3ccc([N+](=O)[O-])cc3[N+](=O)[O-])CS[C@H]12	114 nmol of substrate hydrolyzed/m
C[C@H]1[C@H](NC(=O)/C(=N\OC(C)(C)C(=O)O)c2csc(N)n2)C(=O)N1S(=O)(=O)O	0.6 nmol of substrate hydrolyzed/m
CO/N=C(\C(=O)N[C@@H]1C(=O)N2C(C(=O)O)=C(COC(C)=O)CS[C@H]12)c1csc(N)n1	4 nmol of substrate hydrolyzed/m

Would you kindly look at the next entry?
Please report the recorded Hydrolysis for CC(C)(O/N=C(\C(=O)N[C@@H]1C(=O)N2C(C(=O)[O-])=C(C[n+]3ccccc3)CS[C@H]12)c1csc(N)n1)C(=O)O . 3 nmol of substrate hydrolyzed/m

====

Listing: Hydrolysis of selected molecules
- experimental-target: single beta-lactamase in P. mirabilis cell extracts (Escherichia coli, UniProt P62593, E102K/R162S)
- assay-remarks: Spectrophotometric hydrolysis assay on crude beta-lactamase extracts
- condition: P. mirabilis Pit 85 extract, beta-lactamase pI 5.6; 100 μM substrate

chemical-string	Hydrolysis
C[C@H]1[C@H](NC(=O)/C(=N\OC(C)(C)C(=O)O)c2csc(N)n2)C(=O)N1S(=O)(=O)O	0.5 nmol of substrate hydrolyzed/m

Please report the recorded Hydrolysis for CO/N=C(\C(=O)N[C@@H]1C(=O)N2C(C(=O)O)=C(COC(C)=O)CS[C@H]12)c1csc(N)n1 . 5 nmol of substrate hydrolyzed/m

Now this one: O=C(Cc1cccs1)N[C@@H]1C(=O)N2C(C(=O)O)=C(/C=C/c3ccc([N+](=O)[O-])cc3[N+](=O)[O-])CS[C@H]12 138 nmol of substrate hydrolyzed/m

Now this one: CC(C)(O/N=C(\C(=O)N[C@@H]1C(=O)N2C(C(=O)[O-])=C(C[n+]3ccccc3)CS[C@H]12)c1csc(N)n1)C(=O)O 1 nmol of substrate hydrolyzed/m

====

Listing: Hydrolysis of selected compounds
- experimental-target: single beta-lactamase in E. coli cell extracts (Escherichia coli, UniProt P62593, E102K/R162S)
- assay-remarks: Spectrophotometric hydrolysis assay on crude beta-lactamase extracts
- condition: E. coli Pit 64 extract, beta-lactamase pI 5.6; 100 μM substrate

For orientation, consider the following solved cases.
compound	metric	result
O=C(Cc1cccs1)N[C@@H]1C(=O)N2C(C(=O)O)=C(/C=C/c3ccc([N+](=O)[O-])cc3[N+](=O)[O-])CS[C@H]12 [Nitrocefin]	Hydrolysis	275 nmol of substrate hydrolyzed/m
C[C@H]1[C@H](NC(=O)/C(=N\OC(C)(C)C(=O)O)c2csc(N)n2)C(=O)N1S(=O)(=O)O [aztreonam]	Hydrolysis	0.4 nmol of substrate hydrolyzed/m
CO/N=C(\C(=O)N[C@@H]1C(=O)N2C(C(=O)O)=C(COC(C)=O)CS[C@H]12)c1csc(N)n1 [cefotaxime]	Hydrolysis	1 nmol of substrate hydrolyzed/m

Would you kindly look at the next entry?
Please report the recorded Hydrolysis for CC(C)(O/N=C(\C(=O)N[C@@H]1C(=O)N2C(C(=O)[O-])=C(C[n+]3ccccc3)CS[C@H]12)c1csc(N)n1)C(=O)O [ceftazidime] . 2 nmol of substrate hydrolyzed/m

====

- experimental-target: single beta-lactamase in K. pneumoniae cell extracts (Klebsiella pneumoniae, UniProt P0AD64, G234S)
- assay-remarks: Spectrophotometric hydrolysis assay on crude beta-lactamase extracts
- condition: K. pneumoniae Pit 100 extract, beta-lactamase pI 7.6; 100 μM substrate
Listing: Hydrolysis of selected molecules

For orientation, consider the following solved cases.
chemical-string	result
CO/N=C(\C(=O)N[C@@H]1C(=O)N2C(C(=O)O)=C(COC(C)=O)CS[C@H]12)c1csc(N)n1	11 nmol of substrate hydrolyzed/m
C[C@H]1[C@H](NC(=O)/C(=N\OC(C)(C)C(=O)O)c2csc(N)n2)C(=O)N1S(=O)(=O)O	0.9 nmol of substrate hydrolyzed/m
O=C(Cc1cccs1)N[C@@H]1C(=O)N2C(C(=O)O)=C(/C=C/c3ccc([N+](=O)[O-])cc3[N+](=O)[O-])CS[C@H]12	159 nmol of substrate hydrolyzed/m

Please report the recorded Hydrolysis for CC(C)(O/N=C(\C(=O)N[C@@H]1C(=O)N2C(C(=O)[O-])=C(C[n+]3ccccc3)CS[C@H]12)c1csc(N)n1)C(=O)O . 0.1 nmol of substrate hydrolyzed/m

====

- Tested on: E. aerogenes
- Format: cell-based, Enterobacter aerogenes
- condition: 29 E. aerogenes strains with Bush group 1 and group 2be (SHV-4) enzymes
Listing: MIC range of selected compounds

chemical-string	result
CO/N=C(\C(=O)N[C@@H]1C(=O)N2C(C(=O)O)=C(COC(C)=O)CS[C@H]12)c1csc(N)n1	1 to 2 µg/mL
C[C@@H](O)[C@H]1C(=O)N2C(C(=O)O)=C(SCCN=CN)C[C@H]12	0.5 µg/mL
CC(C)(O/N=C(\C(=O)N[C@@H]1C(=O)N2C(C(=O)[O-])=C(C[n+]3ccccc3)CS[C@H]12)c1csc(N)n1)C(=O)O	8 to 32 µg/mL

Would you kindly look at the next entry?
Please report the recorded MIC range for CO[C@@]1(NC(=O)Cc2cccs2)C(=O)N2C(C(=O)O)=C(COC(N)=O)CS[C@@H]21 . >256 µg/mL

====

- Test system: P. mirabilis
- assay-remarks: Agar dilution MIC, South African isolates
- Type: cell-based, Proteus mirabilis
- condition: 4 strains, tzp with tazobactam 4 μg/ml
metric: MIC range

For orientation, consider the following solved cases.
molecule	MIC range
C[C@H]1[C@H](NC(=O)/C(=N\OC(C)(C)C(=O)O)c2csc(N)n2)C(=O)N1S(=O)(=O)O [aztreonam]	0.5 to 2 µg/mL
CCN1CCN(C(=O)N[C@@H](C(=O)N[C@@H]2C(=O)N3[C@@H]2SC(C)(C)[C@@H]3C(=O)O)c2ccccc2)C(=O)C1=O [piperacillin]	128 µg/mL
C[C@@H](O)[C@H]1C(=O)N2C(C(=O)O)=C(SCCN=CN)C[C@H]12 [imipenem]	0.5 to 1 µg/mL
CC(C)(O/N=C(\C(=O)N[C@@H]1C(=O)N2C(C(=O)[O-])=C(C[n+]3ccccc3)CS[C@H]12)c1csc(N)n1)C(=O)O [ceftazidime]	16 to 64 µg/mL
CO/N=C(\C(=O)N[C@@H]1C(=O)N2C(C(=O)O)=C(COC(C)=O)CS[C@H]12)c1csc(N)n1 [cefotaxime]	0.25 to 0.5 µg/mL

Please report the recorded MIC range for CO[C@@]1(NC(=O)Cc2cccs2)C(=O)N2C(C(=O)O)=C(COC(N)=O)CS[C@@H]21 [cefoxitin] . 2 to 4 µg/mL

Now this one: CO/N=C(\C(=O)N[C@@H]1C(=O)N2C(C(=O)[O-])=C(C[N+]3(C)CCCC3)CS[C@H]12)c1csc(N)n1 [cefepime] 2 µg/mL

====

- System: K. pneumoniae
- assay-remarks: Agar dilution MIC, South African isolates
- Format: cell-based, Klebsiella pneumoniae
- condition: resistance phenotype Kpn2, 28 strains; tzp with tazobactam 4 μg/ml
metric: MIC range

For orientation, consider the following solved cases.
compound	MIC range
CO/N=C(\C(=O)N[C@@H]1C(=O)N2C(C(=O)O)=C(COC(C)=O)CS[C@H]12)c1csc(N)n1	4 to 64 µg/mL
C[C@H]1[C@H](NC(=O)/C(=N\OC(C)(C)C(=O)O)c2csc(N)n2)C(=O)N1S(=O)(=O)O	1 to 128 µg/mL
CO[C@@]1(NC(=O)Cc2cccs2)C(=O)N2C(C(=O)O)=C(COC(N)=O)CS[C@@H]21	2 to 8 µg/mL
CO/N=C(\C(=O)N[C@@H]1C(=O)N2C(C(=O)[O-])=C(C[N+]3(C)CCCC3)CS[C@H]12)c1csc(N)n1 [cefepime]	0.5 to 4 µg/mL
C[C@@H](O)[C@H]1C(=O)N2C(C(=O)O)=C(SCCN=CN)C[C@H]12	0.12 to 1 µg/mL

Please report the recorded MIC range for CC(C)(O/N=C(\C(=O)N[C@@H]1C(=O)N2C(C(=O)[O-])=C(C[n+]3ccccc3)CS[C@H]12)c1csc(N)n1)C(=O)O . 4 to 128 µg/mL
